Target: human LXR alpha ligand binding domain (LXRα-LBD) (Homo sapiens)
Sequence (Q13133 164-447): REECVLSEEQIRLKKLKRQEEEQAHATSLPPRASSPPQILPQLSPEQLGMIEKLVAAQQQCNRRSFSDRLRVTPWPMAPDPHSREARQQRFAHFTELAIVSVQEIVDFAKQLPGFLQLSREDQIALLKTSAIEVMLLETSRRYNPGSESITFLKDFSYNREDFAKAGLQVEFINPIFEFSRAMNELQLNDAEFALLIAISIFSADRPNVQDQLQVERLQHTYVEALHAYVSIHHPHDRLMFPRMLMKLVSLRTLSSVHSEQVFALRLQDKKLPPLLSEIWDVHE
QUANTITY_NAME: IC50 (nM)

[a] O=C(C1CN(S(=O)(=O)c2ccccc2)C(=O)N1C1CCCCC1)N1CCN(c2ncccc2C(F)(F)F)CC1 (racemic)
[b] Cc1ccc(C)c(N2CCN(C(=O)[C@@H]3CN(S(=O)(=O)c4ccccc4)C(=O)N3c3ccccc3Cl)CC2)c1
// query Which shows the larger IC50 value: a or b ? Reply briefly: the label of your chosen item.
// result a
(a: 5500 nM, b: 260 nM)
